B1: library; numbered along this chain (parent)
chain: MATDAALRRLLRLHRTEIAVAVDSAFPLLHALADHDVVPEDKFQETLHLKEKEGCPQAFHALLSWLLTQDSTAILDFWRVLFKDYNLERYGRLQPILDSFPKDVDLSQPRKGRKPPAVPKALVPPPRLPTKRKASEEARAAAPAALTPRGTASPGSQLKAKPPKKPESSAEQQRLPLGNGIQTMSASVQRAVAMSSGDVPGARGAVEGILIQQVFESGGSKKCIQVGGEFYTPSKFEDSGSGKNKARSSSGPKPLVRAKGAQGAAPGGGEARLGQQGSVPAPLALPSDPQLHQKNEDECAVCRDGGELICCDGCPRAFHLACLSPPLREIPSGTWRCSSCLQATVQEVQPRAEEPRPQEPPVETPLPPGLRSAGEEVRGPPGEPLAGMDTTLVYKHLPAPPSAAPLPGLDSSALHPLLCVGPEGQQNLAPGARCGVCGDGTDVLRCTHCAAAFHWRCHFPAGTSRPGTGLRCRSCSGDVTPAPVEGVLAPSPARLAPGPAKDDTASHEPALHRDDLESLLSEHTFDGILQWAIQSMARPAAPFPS

Variants of: B1
Method notes: AIRE transcriptional activation functional score (insulin promoter-GFP; nonsense median 0, synonymous median 1) (normalised score); higher = higher AIRE activity (more reporter activation)
Condition: with insulin promoter-GFP reporter in HEK293
Think of 1 as a floor: if AIRE transcriptional activation functional score stands on it or above, it is true; beneath it, false.

Answered examples (4):
R445P: false
R513F: true
M388A: false
R139P: false

Qu. Please check the record A413E and state if its AIRE transcriptional activation functional score is at or above 1.
Ans. false

Qu. Please check the record A152V and state if its AIRE transcriptional activation functional score is at or above 1.
Ans. true

Qu. Please check the record P466C and state if its AIRE transcriptional activation functional score is at or above 1.
Ans. true
